Listed here: items and their measured pKd.
# target.system: TbPar42 N-terminal extended FHA domain (1-177) (Trypanosoma brucei, UniProt Q57XM6 1-177)
# experiment.description: NMR titration; unlabelled Ala-Glu-Ala-pThr-Ala-Glu-Xaa peptide added stepwise up to 8 mM to 250 µM 15N-labelled NterFHA; 1H-15N-HSQC, 27 °C; mean KD values
# particulars: both partners purified
Where no end group is shown, it is not given here. [ ]: non-standard residue; d: D form. pT = C[C@@H](OP(=O)(O)O)[C@H](N)C(=O)O
Convention used: pKd is expressed as -log10 of the molar concentration.

Consider the worked cases shown below.
[[record]]
binder = "AEA[pT]AEI [Ala-Glu-Ala-pThr-Ala-Glu-Ile]"
assay_readout = "pKd"
test_result = 2.39

[[record]]
binder = "AEA[pT]AES [Ala-Glu-Ala-pThr-Ala-Glu-Ser]"
assay_readout = "pKd"
test_result = 2.51


Record AEA[pT]AED [Ala-Glu-Ala-pThr-Ala-Glu-Asp] , field pKd: 2.47

Entry AEA[pT]AEV [Ala-Glu-Ala-pThr-Ala-Glu-Val] ; pKd = 2.41

The reported value for AEA[pT]AEE [Ala-Glu-Ala-pThr-Ala-Glu-Glu] in terms of pKd is 2.27
